All values here come from the METLIN SMRT retention time set (Domingo-Almenara et al. 2019).

test: gradient 5% acetonitrile 3 min, to 50% in 2 min, to 85% in 15 min, held 3 min, 100 µL/min; conditions: column: Zorbax Extend-C18 2.1 x 50 mm; eluents: water / acetonitrile, 0.1% formic acid

| COMPOUND | RP-LC retention time [s] |
| --- | --- |
| O=C(Nc1ccc(F)cc1)N1CCC(N2CCN(Cc3ccccc3)C2=O)CC1 | 794 |
| CN(C)c1cc2c(cc1NC(=O)C1CC1)n(C)c(=O)c(=O)n2C | 608 |
| Cc1ccc(Sc2nccnc2N2CCCC(C(=O)NC(C)C)C2)cc1 (stereo not given) | 996 |
| CC(=O)OCC(=O)[C@@]1(O)CCC2C3CCC4=CC(=O)CC[C@]4(C)C3=CC[C@@]21C (stereo not given in full) | 776 |
| O=C1NC(c2cccc([N+](=O)[O-])c2)=CCN1c1ccccc1O | 837 |
| COc1ccc(CC(=O)N2CCN(c3cc(C)n4cnnc4n3)CC2)cc1Cl | 611 |
| Cc1cc(-c2nnc(C3CCC3)o2)c(C)n1CC(=O)NCc1ccc2c(c1)OCO2 | 816 |
| COCCNc1ccc2nnc(C)n2n1 | 590 |
| Cn1c(C(=O)Nc2ccc(F)cc2F)cc2c(=O)oc3ccccc3c21 | 923 |
| CCn1cc(S(=O)(=O)Nc2cc(OC)cc(OC)c2)c2cccnc21 | 817 |
| CCN1CCN(C(=O)CN2C(=O)C3CCCCN3c3ccc(C(=O)N4CCCCC4)cc32)CC1 (stereo not given) | 632 |
| Cc1cc2[nH]c(C(=O)Nc3ccc(F)c(C)c3)c(CN3CCOCC3)c2s1 | 720 |
| CC(=O)N1CCc2cc(C)c(S(=O)(=O)Nc3cccc(F)c3)cc21 | 731 |
| CC1CCCN(c2nn(CC(=O)Nc3ccc(F)cc3)c(=O)c3ccccc23)C1 (stereo not given) | 1090 |
| CS(=O)(=O)N1CCC(C(=O)N2CC(c3nc(-c4ccccn4)no3)C2)CC1 | 579 |
| Cn1cc2c(N3CCSCC3)nc(C(=O)NCc3ccc(N4CCCC4)cc3)nc2n1 | 699 |
| CNC(=O)c1cnn(-c2cccc(F)c2)c1-n1cccc1 | 777 |
| Cc1ccc(NC(=O)CN2C(=O)C3CCCCN3c3ccc(S(=O)(=O)N(C)C)cc32)cc1C (stereo not given) | 922 |
| O=C(Cn1nc(C(=O)N2CCCCC2)c2ccccc21)N1CCN(c2cccc(Cl)c2)CC1 | 1010 |
| CCOc1ccc(-c2nc(C3CC(=O)N(c4ccc(C)cc4)C3)no2)cc1 (stereo not given) | 1070 |
